Biological target: T1, T9 (Tn-MUC1) (PAPGSTAPPAHGVT(α-GalNAc)S(α-GalNAc)APDTRPAPG-OH)
T1 peptide: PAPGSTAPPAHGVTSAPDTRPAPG
Assay: glycopeptide array
List of EC50 values.
Answer with a number only, understood to be in µg/mL.

>  <binder>
190 (antibody, V domains shown) VH: QVQLVQSGAEVKKPGASVKVSCKASGYAFTNYYIHWVRQAPGHGLTWMGVINPFDSSTDFAQKFQGRLTMTRDTSTSTVYMDLSSLRSEDTAVYYCARDYMRGHVVFDNWGQGTLVTVSS

>  <EC50 / µg/mL>
0.12

$$$$

Now for another entry.
EC50 measured on 102 (antibody, V domains shown) VH: QVQLVQSGAEVKKSGASVKVSCKASGYPFISYYIHWLRQAPGQGLTWMGVINPFDGSTDYAQKFQGRVTVTRDTSTSTVYMDLSSLRADDTAIYYCARDYMRGYVVFDYWGQGTLVTVSS = 0.102
